The values you see were collected from ChEMBL document CHEMBL5608184.

- Tested on: A2780
- test_method_notes: Antiproliferative activity against human A2780 cells incubated for 48 hrs by CCK8 assay
- Format: functional, cell-based
- condition_label: A2780, 48 h
measured_property: pIC50
Worth noting: pIC50 values are minus log10 of concentrations stated in mol/L.

>>> value_measured("COc1cccc(N(C)c2nc(Cl)nc3ccsc23)c1")
6.65
>>> value_measured("COc1ccc(N(C)c2nc(N(C)C)nc3ccsc23)cc1")
6.65
>>> value_measured("CCNc1nc(N(C)c2ccc(OC)cc2)c2sccc2n1")
7.29
>>> value_measured("COc1ccc(N(C)c2nc(Cl)nc3ccoc23)cc1")
8.20
>>> value_measured("COc1ccc(N(C)c2nc(Cl)nc3cc[nH]c23)cc1")
7.64
>>> value_measured("CN(c1ccc2c(ccn2C)c1)c1nc(Cl)nc2ccsc12")
8.81
>>> value_measured("COc1cc2c(c(OC)c1OC)-c1ccc(OC)c(=O)cc1[C@@H](NC(C)=O)CC2")
7.91

# pIC50 lookup, item COc1ccc(N(C)c2nc(NC3CC3)nc3ccsc23)cc1 7.52
